- System: U-251
- Assay: Concentration causing 50% inhibition of cancer cell growth against human CNS U251 cell line
- Type: functional
Examples of compounds with documented IG50 follow.
Provide the reading as a plain figure in µM.

Item smiles: CC(=O)O[C@@H]1COC(=O)/C1=C/C[C@@H]1[C@@]2(CC[C@@H]3[C@](C)(CO)[C@H](O)CC[C@]31C)CO2
IG50 / µM: 50
--
Item smiles: CC(C)(C)OC(=O)NCC(=O)O[C@@H]1COC(=O)/C1=C/C[C@@H]1[C@@]2(CC[C@@H]3[C@](C)(CO)[C@H](O)CC[C@]31C)CO2
IG50 / µM: 40
--
Item smiles: CCC(=O)OC[C@@]1(C)[C@H]2CC[C@@]3(CO3)[C@@H](C/C=C3/C(=O)OC[C@H]3OC(=O)/C=C/c3ccc4c(c3)OCO4)[C@]2(C)CC[C@H]1OC(=O)CC
IG50 / µM: 35
--
Item smiles: CC(=O)OC[C@@]1(C)[C@H]2CC[C@@]3(CO3)[C@@H](C/C=C3/C(=O)OC[C@H]3OC(C)=O)[C@]2(C)CC[C@H]1OC(C)=O
IG50 / µM: 2.5
--
Item smiles: CC(=O)O[C@@H]1CC[C@]2(C)[C@H](CC[C@@]3(CO3)[C@H]2C/C=C2/C(=O)OC[C@H]2O)[C@]1(C)CO
IG50 / µM: 45

Identify IG50 associated with the compound CCC(=O)OC[C@@]1(C)[C@H]2CC[C@@]3(CO3)[C@@H](C/C=C3/C(=O)OC[C@H]3OC(=O)/C=C/c3ccc(OC)cc3)[C@]2(C)CC[C@H]1OC(=O)CC
3

Identify IG50 associated with the compound C[C@]1(CO)[C@H]2CC[C@@]3(CO3)[C@@H](C/C=C3/C(=O)OC[C@H]3O)[C@]2(C)CC[C@H]1O
16

Identify IG50 associated with the compound CC(=O)OC[C@@]1(C)[C@H]2CC[C@@H](C=O)[C@@H](C/C=C3/C(=O)OC[C@H]3OC(C)=O)[C@]2(C)CC[C@H]1OC(C)=O
62

Identify IG50 associated with the compound CCC(=O)O[C@@H]1COC(=O)/C1=C/C[C@@H]1[C@@]2(CC[C@@H]3[C@](C)(CO)[C@H](OC(=O)CC)CC[C@]31C)CO2
35

Identify IG50 associated with the compound C=C1CC[C@@H]2[C@](C)(CO)[C@H](O)CC[C@@]2(C)[C@@H]1/C=C/C1=CCOC1=O
81

====

Examples of compounds with documented IG50 follow.
- Test system: A498
- Assay: Concentration causing 50% inhibition of cancer cell growth against human renal A498 cell line
- Type: functional
Provide the reading as a plain figure in µM.

Solved cases below.
Item smiles: CC(=O)O[C@@H]1COC(=O)/C1=C/C[C@@H]1[C@@]2(CC[C@@H]3[C@](C)(CO)[C@H](OC(C)=O)CC[C@]31C)CO2
Study target: A498
IG50, µM: 6
--
Item smiles: CCC(=O)O[C@@H]1COC(=O)/C1=C/C[C@@H]1[C@@]2(CC[C@@H]3[C@](C)(CO)[C@H](OC(=O)CC)CC[C@]31C)CO2
Study target: A498
IG50, µM: 40
--
Item smiles: CCC(=O)OC[C@@]1(C)[C@H]2CC[C@@]3(CO3)[C@@H](C/C=C3/C(=O)OC[C@H]3OC(=O)/C=C/c3ccc4c(c3)OCO4)[C@]2(C)CC[C@H]1OC(=O)CC
Study target: A498
IG50, µM: 6

Identify IG50 associated with the compound CC(=O)O[C@@H]1CC[C@]2(C)[C@H](CC[C@@]3(CO3)[C@H]2C/C=C2/C(=O)OC[C@H]2O)[C@]1(C)CO
20

Identify IG50 associated with the compound CCC(=O)OC[C@@]1(C)[C@H]2CC[C@@]3(CO3)[C@@H](C/C=C3/C(=O)OC[C@H]3OC(=O)/C=C/c3ccc(OC)c(OC)c3)[C@]2(C)CC[C@H]1OC(=O)CC
3.5

Identify IG50 associated with the compound CC(=O)OC[C@@]1(C)[C@H]2CC[C@@]3(CO3)[C@@H](C/C=C3/C(=O)OC[C@H]3OC(=O)CNC(=O)OC(C)(C)C)[C@]2(C)CC[C@H]1OC(C)=O
20

====

- Test system: A498
- Assay: Concentration causing 50% inhibition of cancer cell growth against human renal A498 cell line
- Type: functional
Endpoint: IG50 (µM)
Provide the reading as a plain figure in µM.

Solved cases below.
Compound: CCC(=O)OC[C@@]1(C)[C@H]2CC[C@@]3(CO3)[C@@H](C/C=C3/C(=O)OC[C@H]3OC(=O)/C=C/c3ccccc3)[C@]2(C)CC[C@H]1OC(=O)CC
Display unit: µM
IG50: 3
//
Compound: CC(=O)OC[C@@]1(C)[C@H]2CC[C@@]3(CO3)[C@@H](C/C=C3/C(=O)OC[C@H]3OC(C)=O)[C@]2(C)CC[C@H]1OC(C)=O
Display unit: µM
IG50: 0.25
//
Compound: CC(C)(C)OC(=O)NCC(=O)O[C@@H]1COC(=O)/C1=C/C[C@@H]1[C@@]2(CC[C@@H]3[C@](C)(CO)[C@H](O)CC[C@]31C)CO2
Display unit: µM
IG50: 5

Identify IG50 associated with the compound C[C@]1(CO)[C@H]2CC[C@@]3(CO3)[C@@H](C/C=C3/C(=O)OC[C@H]3O)[C@]2(C)CC[C@H]1O
30

Identify IG50 associated with the compound CCC(=O)OC[C@@]1(C)[C@H]2CC[C@@]3(CO3)[C@@H](C/C=C3/C(=O)OC[C@H]3OC(=O)CNC(=O)OC(C)(C)C)[C@]2(C)CC[C@H]1OC(=O)CC
4

Identify IG50 associated with the compound CCC(=O)OC[C@@]1(C)[C@H]2CC[C@@]3(CO3)[C@@H](C/C=C3/C(=O)OC[C@H]3OC(=O)/C=C/c3ccc(OC)cc3)[C@]2(C)CC[C@H]1OC(=O)CC
3

Identify IG50 associated with the compound CC(=O)OC[C@@]1(C)[C@H]2CC[C@@]3(CO3)[C@@H](C/C=C3/C(=O)OC[C@H]3O)[C@]2(C)CC[C@H]1OC(C)=O
20

====

- Test system: U-251
- Assay: Concentration causing 50% inhibition of cancer cell growth against human CNS U251 cell line
- Format: functional
Examples of compounds with documented log10 of IG50 follow.
Field: value | Transform: log10 | Quantity: IG50 | Unit: µM

Solved cases below.
Item smiles: CC(=O)OC[C@@]1(C)[C@H]2CC[C@@]3(CO3)[C@@H](C/C=C3/C(=O)OC[C@H]3O)[C@]2(C)CC[C@H]1OC(C)=O
Quantitative result: 1.60

Item smiles: CC(=O)O[C@@H]1COC(=O)/C1=C/C[C@@H]1[C@@]2(CC[C@@H]3[C@](C)(CO)[C@H](OC(C)=O)CC[C@]31C)CO2
Quantitative result: 1.48

Item smiles: CCC(=O)OC[C@@]1(C)[C@H]2CC[C@@]3(CO3)[C@@H](C/C=C3/C(=O)OC[C@H]3OC(=O)CNC(=O)OC(C)(C)C)[C@]2(C)CC[C@H]1OC(=O)CC
Quantitative result: 1.30

Identify log10 of IG50 associated with the compound CC(=O)OC[C@@]1(C)[C@H]2CC[C@@]3(CO3)[C@@H](C/C=C3/C(=O)OC[C@H]3OC(=O)CNC(=O)OC(C)(C)C)[C@]2(C)CC[C@H]1OC(C)=O
0.60

Identify log10 of IG50 associated with the compound C[C@]1(CO)[C@H]2CC[C@@]3(CO3)[C@@H](C/C=C3/C(=O)OC[C@H]3OC(=O)/C=C/c3ccccc3)[C@]2(C)CC[C@H]1O
0.78

Identify log10 of IG50 associated with the compound CCC(=O)OC[C@@]1(C)[C@H]2CC[C@@]3(CO3)[C@@H](C/C=C3/C(=O)OC[C@H]3OC(=O)CC)[C@]2(C)CC[C@H]1OC(=O)CC
0.48

====

- Test system: U-251
- Assay: Concentration causing 50% inhibition of cancer cell growth against human CNS U251 cell line
- Type: functional
Endpoint: IG50 (µM)
Provide the reading as a plain figure in µM.

Solved cases below.
Molecule: CCC(=O)OC[C@@]1(C)[C@H]2CC[C@@]3(CO3)[C@@H](C/C=C3/C(=O)OC[C@H]3OC(=O)/C=C/c3ccc(OC)c(OC)c3)[C@]2(C)CC[C@H]1OC(=O)CC
Study target: U-251
Display unit: µM
Quantitative result: 2
//
Molecule: C=C1CC[C@@H]2[C@](C)(CO)[C@H](O)CC[C@@]2(C)[C@@H]1CCC1C(=O)OC[C@H]1O (some centres not stated)
Study target: U-251
Display unit: µM
Quantitative result: 85
//
Molecule: CCC(=O)OC[C@@]1(C)[C@H]2CC[C@@]3(CO3)[C@@H](C/C=C3/C(=O)OC[C@H]3OC(=O)/C=C/c3ccccc3)[C@]2(C)CC[C@H]1OC(=O)CC
Study target: U-251
Display unit: µM
Quantitative result: 6

Identify IG50 associated with the molecule CC(=O)OC[C@@]1(C)[C@H]2CC[C@@H](CO)[C@@H](C/C=C3/C(=O)OC[C@H]3OC(C)=O)[C@]2(C)CC[C@H]1OC(C)=O
19

Identify IG50 associated with the molecule C=C1CC[C@@H]2[C@](C)(CO)[C@H](O)CC[C@@]2(C)[C@@H]1C/C=C1/C(=O)OC[C@H]1O [ANDROGRAPHOLIDE]
3

Identify IG50 associated with the molecule CC(=O)OC[C@@]1(C)[C@H]2CCC3=COC(C4=CCOC4=O)C[C@H]3[C@]2(C)CC[C@H]1OC(C)=O (some centres not stated)
30

Hey, just so you know, these numbers are from ChEMBL document CHEMBL1137838.
